# ASSAY INFO: Bioavailability and pharmacokinetic study of crystalline Forms A and B of metaxalone, oral suspension, plasma by HPLC
# Assay type: in vivo, female wistar rat
# ASSAY CONDITIONS: female, Wistar, rat, plasma, po, 150 mg/kg, Mean of N=6 rats, female wistar rat, oral 150 mg/kg; read-out: Cmax Mean
MEASUREMENT NAME: Cmax (ng/mL)
Provide only the numeric value, understood in ng/mL.

Input Cc1cc(C)cc(OCC2CNC(=O)O2)c1 (single isomer, unassigned) [Form A] . Output Cmax: 37700

====

# ASSAY INFO: Bioavailability and pharmacokinetic study of crystalline Forms A and B of metaxalone, oral suspension, plasma by HPLC
# Type: in vivo, female wistar rat
# ASSAY CONDITIONS: female, Wistar, rat, plasma, po, 150 mg/kg, female wistar rats, fasting, oral 150 mg/kg, Mean ± SD
MEASUREMENT NAME: AUC(0-inf)

Input Cc1cc(C)cc(OCC2CNC(=O)O2)c1 (single isomer, unassigned) [Form A] . Output AUC(0-inf): 451 µg·h/mL
